Numbers sourced from ChEMBL document CHEMBL1150431.

system: DNA; test: Binding affinity to calf thymus DNA assessed as melting temperature by […]; assay type: nucleic-acid assay; conditions: Bos taurus
READOUT LABEL: ΔTm (°C)
Your answer should be a plain number; it is taken to be in °C.

Recorded results for 6 compounds are shown here.
CN(C)CCn1c2c(c3ccccc3c1=O)C(=O)c1cc(O)ccc1-2 ... 5
O=C1c2cc(OCCN3CCCC3)ccc2-c2c1c1ccccc1c(=O)n2CCN1CCCC1 ... 19
CN(C)CCCn1c2c(c3ccccc3c1=O)C(=O)c1cc(O)ccc1-2 ... 8
CN(C)CCOc1ccc2c(c1)-c1c(c3ccccc3c(=O)n1CCN(C)C)C2=O ... 15
CN(C)CCn1c2c(c3ccccc3c1=O)C(=O)c1ccccc1-2 ... 5.9
COc1cc2c3c(n(CCN(C)C)c(=O)c2cc1OC)-c1ccc(OCCN(C)C)cc1C3=O ... 19

Problem: Returns the measured ΔTm for the input compound. Input: CN(C)CCCn1c2c(c3ccccc3c1=O)C(=O)c1ccc(OCCN(C)C)cc1-2
Solution: 17

Problem: Returns the measured ΔTm for the input compound. Input: CN(C)CCCn1c2c(c3ccccc3c1=O)C(=O)c1cc(OCCN(C)C)ccc1-2
Solution: 24

Problem: Returns the measured ΔTm for the input compound. Input: COc1cc2c3c(n(CCCN(C)C)c(=O)c2cc1OC)-c1ccc(OCCN(C)C)cc1C3=O
Solution: 22

Problem: Returns the measured ΔTm for the input compound. Input: CN(C)CCCn1c2c(c3ccccc3c1=O)C(=O)c1ccccc1-2
Solution: 10.8

Problem: Returns the measured ΔTm for the input compound. Input: CN(C)CCOc1ccc2c(c1)C(=O)c1c-2n(CCN(C)C)c(=O)c2ccccc12
Solution: 17

###

test system: DNA; assay: Binding affinity to calf thymus DNA by ethidium bromide based competitive displacement fluorimetry assay; type: nucleic-acid assay; conditions: Bos taurus
Think of 7 ×10⁶ /M as a floor: if Kapp stands on it or above, it is TRUE; beneath it, FALSE.

CN(C)CCCn1c2c(c3ccccc3c1=O)C(=O)c1cc(OCCN(C)C)ccc1-2 ... TRUE
COc1cc2c3c(n(CCN(C)C)c(=O)c2cc1OC)-c1ccc(OCCN(C)C)cc1C3=O ... TRUE
CN(C)CCn1c2c(c3ccccc3c1=O)C(=O)c1ccccc1-2 ... FALSE
CN(C)CCOc1ccc2c(c1)C(=O)c1c-2n(CCN(C)C)c(=O)c2ccccc12 ... TRUE
O=C1c2cc(OCCN3CCCC3)ccc2-c2c1c1ccccc1c(=O)n2CCN1CCCC1 ... TRUE

Problem: hey, is Kapp for this one >= 7 ×10⁶ /M? CN(C)CCn1c2c(c3ccccc3c1=O)C(=O)c1cc(O)ccc1-2
Solution: FALSE

Problem: hey, is Kapp for this one >= 7 ×10⁶ /M? CN(C)CCOc1ccc2c(c1)-c1c(c3ccccc3c(=O)n1CCN(C)C)C2=O
Solution: FALSE

Problem: hey, is Kapp for this one >= 7 ×10⁶ /M? CN(C)CCCn1c2c(c3ccccc3c1=O)C(=O)c1ccc(OCCN(C)C)cc1-2
Solution: TRUE

Problem: hey, is Kapp for this one >= 7 ×10⁶ /M? COc1cc2c3c(n(CCCN(C)C)c(=O)c2cc1OC)-c1ccc(OCCN(C)C)cc1C3=O
Solution: TRUE

###

system: DNA; assay: Binding affinity to calf thymus DNA by fluorescence titration; type: nucleic-acid assay; settings: Bos taurus
READOUT LABEL: Kapp

CN(C)CCNc1nc2cc(OCCN(C)C)ccc2c2c1C(=O)c1ccccc1-2 ... 1.58 ×10⁶ /M
CN(C)CCNc1nc2cc(O)ccc2c2c1C(=O)c1ccccc1-2 ... 1.54 ×10⁶ /M
O=C1c2ccccc2-c2c1c(NCCN1CCCC1)nc1cc(OCCN3CCCC3)ccc21 ... 0.46 ×10⁶ /M
CN(C)CCCNc1nc2cc(O)ccc2c2c1C(=O)c1ccccc1-2 ... 0.88 ×10⁶ /M

Problem: Returns the measured Kapp for the input compound. Input: O=C1c2ccccc2-c2c1c(NCCN1CCCC1)nc1cc(O)ccc21
Solution: 0.51 ×10⁶ /M

###

tested on: DNA; assay: Binding affinity to calf thymus DNA assessed as change in melting temperature at 1 uM […]; details: Bos taurus
READOUT LABEL: ΔTm (°C)
Your answer should be a plain number; it is taken to be in °C.

Recorded results for 3 compounds are shown here.
O=C1c2ccccc2-c2c1c(NCCN1CCCC1)nc1cc(O)ccc21 ... 4
CN(C)CCCNc1nc2cc(OCCCN(C)C)ccc2c2c1C(=O)c1ccccc1-2 ... 27
CN(C)CCCNc1nc2cc(O)ccc2c2c1C(=O)c1ccccc1-2 ... 7

Problem: Returns the measured ΔTm for the input compound. Input: O=C1c2ccccc2-c2c1c(NCCN1CCCC1)nc1cc(OCCN3CCCC3)ccc21
Solution: 24

Problem: Returns the measured ΔTm for the input compound. Input: CN(C)CCNc1nc2cc(O)ccc2c2c1C(=O)c1ccccc1-2
Solution: 10

Problem: Returns the measured ΔTm for the input compound. Input: CN(C)CCNc1nc2cc(OCCN(C)C)ccc2c2c1C(=O)c1ccccc1-2
Solution: 24
